# Tested on: LXFL 529
# method: NCI tumour cell line growth inhibition, 48 h
Calls of active or inactive are those of the source. Rule as the data show it: active = GI50 up to about 1.1 µM and inactive = higher.
Can you answer with just one of these options? active, inactive

Recorded call for CN(C)C(=O)C1CCC(=C2C(=O)OC(C)(C)OC2=O)N1C (centres undefined) ?
inactive

Try this molecule next: O=C(Nc1ccccc1Br)c1cccc([N+](=O)[O-])c1O
inactive

Ok, now CC1OC(=O)N(CCCC=C2SCCCS2)C1=O (centres undefined)
inactive

Query NC(=O)n1ncc(Cl)c(Cl)c1=O next
inactive

Record: CC(Oc1ccc(OCC2CCCCC2)cc1)C(=O)NCCO (centres undefined)
inactive

Also Brc1ccc(/N=c2/nc3ccccn3n3nc(-c4ccccc4)cc23)cc1 ?
inactive

Also, Cc1cc2c(cc1C)[n+]([O-])c(C(=O)/C=C/c1ccc(Cl)cc1)c(C)[n+]2[O-] please.
inactive

What about CNc1ccccc1-c1nc2ccccc2c(=O)o1 ?
inactive

What about O=C1C[C@@H]2CCCC[C@@H]2C12SCCS2 ?
inactive

Input O=c1[nH]c(-c2ccccc2)nc2cc([N+](=O)[O-])c(/C(Cl)=C/c3ccccc3)cc12
inactive

Another molecule to look at: Cc1c(Cl)cccc1NC(=O)C(=O)C1C(=O)NC(=O)NC1=O
inactive

Try O=C1C2=C(CCCC2)Nc2cccc3ncn1c23 next.
inactive

Here is the next molecule: CC1=C[P+](Cc2ccccc2)(c2ccccc2)CC1 (centres undefined)
inactive

Then what about the molecule COc1ccc(/C(Cl)=C(\C=O)c2ccc(OC)cc2)cc1 ?
inactive

Lookup CN(C)/N=N/c1ccc(C(N)=O)cc1
inactive

Also, COc1cc(C(=O)O)cc2c1[nH]c1ccccc12 please.
inactive

Also CC1OC(O)CC(OC(=O)c2ccccc2)C1OC(=O)c1ccccc1 (centres undefined) , if possible.
inactive

// query: O=C1CCN(CCC(F)(F)C(F)(F)C(F)(F)C(F)(F)F)C(=S)N1
inactive

Repeat for the following molecule: COCC12CC(CC1=O)C1C2ON2c3ccccc3C(=O)C12c1ccccc1 (centres undefined)
inactive

Could you do the same for COC1=CC(=C(C#N)/C(=N\c2ccccc2)SC)C=C(OC)C1=O , please?
inactive

Please give the result for CCc1nc2ccc(NCCN(C)C)c3c(=O)c4ccccc4n1c23 too.
active

Also CCOC(=O)/C=C1/Oc2ccccc2C1(C)O (centres undefined) , if possible.
inactive

Quick one: C[S+]([O-])c1ccc(COP(N)(=O)N(CCCl)CCCl)cc1 (centres undefined)
inactive

Now the same for CN1CCC(CN2c3ccccc3Sc3ccccc32)CC1
inactive

----------
# System: U-251
# method: NCI tumour cell line growth inhibition, 48 h
Activity calls are given as the source filed them. Rule as the data show it: active = GI50 up to about 1.1 µM and inactive = higher.
Pick from yes (1) (active), no (0) (inactive) when you respond.

Query: recorded result category for N#C/C(=C\c1cc(Cl)cc(Cl)c1)c1ccccn1 in this test
no (0)

Same lookup for COc1cccc(NC(=O)CC(=O)n2nc(-c3ccccc3)c(/N=N/c3ccc(Cl)cc3)c2-c2ccccc2)c1 , please.
no (0)

Same thing, different compound: CNS(=O)(=O)c1ccccc1C(=N)c1ccccc1
no (0)

Request: COc1ccc(/C=N\O[Si](C)(C)C(C)(C)C)cc1O[Si](C)(C)C(C)(C)C
no (0)

Also C1=CC2C=CC(C=C1)P2c1ccccc1 (stereo not drawn) ?
no (0)

Do the same for CC(C)(C)OC(=O)NC(CCC(=O)OCc1ccccc1)C(=O)NCCCO (stereo not drawn) please
no (0)

Now try O=[N+]([O-])c1cc(-[n+]2cc([O-])on2)ccc1F .
no (0)

Param item: O=C1/C(=C/c2ccc([N+](=O)[O-])cc2)C(=O)N(c2ccccc2)C1c1ccccc1 (stereo not drawn)
no (0)

Input CCOC(=O)NC(=O)c1cn(CCN2CCN(C(=O)CCCCCCCCCCNc3ncnc4c3ncn4C3OC(CO)C(O)C3O)CC2)c(=O)[nH]c1=O (stereo not drawn)
no (0)

How about N=C(N)c1ccc(/N=N\c2c(O)c(C(=O)Nc3ccccc3)cc3ccccc23)cc1 ?
no (0)

Record: O=C1C=Cc2ncccc2C1=O
no (0)

What do you get for CC(=O)Oc1ccn2nc(C)c(Br)c2c1Br ?
no (0)

Then this compound: CC(C)=CCNc1ncnc2c1ncn2CCC(=O)OC(C)(C)C
no (0)

Follow-up entry: Clc1ccc(C2=NOC3C4CCC(C4)C23)cc1 (stereo not drawn)
no (0)

Here is the next compound: CN(c1ccccc1)c1cc2ccccc2nn1
no (0)

What about this compound? NC(=O)c1ccccc1NC(=O)C(=O)C(C(=O)c1ccc2ccccc2c1)C1OC(=O)c2ccccc21 (stereo not drawn)
no (0)

Also Cn1c2c(c3ccccc31)CCN(CCCN1CCN(c3cccc(Cl)c3)CC1)C2=O , if possible.
no (0)

Next entry: O/N=C(/C(Cl)=C(Cl)Cl)C(Cl)Cl
no (0)

Can you handle COc1cc2nc(-c3cccs3)nc(Cl)c2cc1OC next?
no (0)

Then what about the compound O=C1C2=C(CCCC2)Nc2cccc3ncn1c23 ?
no (0)

Note, next up: CC[C@H](C)[C@H](NC(=O)[C@H](Cc1ccc(O)cc1)NCC(F)(F)F)C(=O)OC(C)(C)C
no (0)

Consider next the compound C1CSCCCSCCCSCCCSCCCSC1 in the same way.
no (0)

Try CN(C)c1ccc(/C=c2\c3ccccc3n3c2cc(-c2ccccc2)[n+]3C)cc1 next.
yes (1)

Likewise for O=C(c1ccccc1)c1ccc(COc2ccc(C(c3c(O)c4ccccc4oc3=O)c3c(O)c4ccccc4oc3=O)cc2)cc1 ?
no (0)

Repeat for the following compound: O=C(O)c1ccccc1/C=N/N=C1NCCCCN1
no (0)

What would you report for COC(=O)C12C3C4C1C1C2C3C41C(=O)NC(C)(C)CC(=O)O (stereo not drawn) ?
no (0)

// next record NC(=O)N1N=C2c3ccccc3SC[C@H]2[C@@H]1c1ccccc1
no (0)

Thanks! And BrC12c3ccccc3Sc3ccccc3C1(Br)c1ccccc12 (stereo not drawn) ?
no (0)

Similarly, COc1cc2c(cc1OC)C(=O)/C(=C/c1cc(C)cc(C)c1)C2 ?
yes (1)

Next: Nc1ncc2c(n1)-c1ccccc1OC2N1CCOCC1 (stereo not drawn)
no (0)

Try the compound CNc1ccccc1-c1nc2ccccc2c(=O)o1
no (0)

Same question, Cc1ccc(OP(=O)(Oc2ccc(C)cc2)N2C=Cc3ccccc3C2C#N)cc1 (stereo not drawn) this time
no (0)

Would you kindly repeat that for COc1cc2nc3c(=C(C#N)C#N)c4ccccc4n3c(=O)c2cc1OC ?
no (0)

Also need CCCCCCCCCCCCCCCCCC(=O)NCCCNCCCNC(=O)CCCCCCCCCCCCCCCCC , thanks.
no (0)

What about Cc1ccc(-c2nnc(-c3ccc4ccccc4c3)o2)cc1 ?
no (0)

What do you have for O=c1c2cc(I)ccc2nc(SCc2nnco2)n1Cc1ccccc1 ?
no (0)

Input COc1cc(C(=O)Nc2cccc3ccccc23)c(Br)c(OC)c1OC
no (0)

What would you report for COc1ccc(/C=C2\CCC(C)(CN(C)C)C2=O)cc1Br (stereo not drawn) ?
no (0)

Next compound: [N-]=[N+]=NC(c1cn(C2CC(O)C(CO)O2)c(=O)[nH]c1=O)C(Cl)Br (stereo not drawn)
no (0)

# iterate: N#Cc1cccc(N2C(=O)c3c(c(-c4ccccc4)c(-c4ccc(Sc5ccc(-c6c(-c7ccccc7)c7c(c(-c8ccccc8)c6-c6ccccc6)C(=O)N(c6cccc(C#N)c6)C7=O)cc5)cc4)c(-c4ccccc4)c3-c3ccccc3)C2=O)c1
no (0)

Entry to check: N/C(=N\N=C\c1c[nH]c2ccccc12)Nc1ccccc1
yes (1)

Query C=CC1(CC/C(=C\[N+](=O)[O-])c2ccc(OC)c(OC)c2)OCC(C)(C)CO1 next
no (0)

What about O=C(CC(=O)Nc1ccccc1)N/N=C/c1cc(/N=N/c2ccc(Br)cc2)ccc1O ?
no (0)

----------
# System: HL-60
# method: NCI tumour cell line growth inhibition, 48 h
The source made the active and inactive calls. Cut-off read from the data, not from the text of the source: active = GI50 up to about 1.1 µM and inactive = higher.
readout-name: GI50

Would you mind telling me what GI50 value was observed for COC(=O)c1ccccc1NC(=O)C(=O)NNC(=O)c1ccncc1 ?
> 100 µM (inactive)

One more compound: O=C(C1=CCC2(CC1)OCCO2)N(Cc1ccccc1)c1ccccc1I
18 µM (inactive)

Try the compound c1ccc2cc3c(NC4=NCCO4)cccc3cc2c1
25.9 µM (inactive)

Another compound to check: CNS(=O)(=O)c1ccccc1C(=N)c1ccccc1
> 100 µM (inactive)

Moving on to C=C(C)[C@@H]1CC=C(CO)CC1 [PERILLYL ALCOHOL]
50.1 µM (inactive)

Try this compound too: C=CCCCN1CCCC(C)C1=S (centres undefined)
> 100 µM (inactive)

One more compound: CC(=O)OC1=C2CC3(C)OC(=O)CC(C)(C)C3=CC=C2C=C(C(C)C)C1=O (centres undefined)
0.28 µM (active)

And then CC(C)(C)C(=O)C(CC(=O)c1ccccc1)C(=O)C(C)(C)C , what is it?
> 100 µM (inactive)

And what about the compound CCc1ccc(Nc2cc(=O)[nH]c(=S)n2C)cc1 ?
> 100 µM (inactive)

Please do the same for CSCC(CO)NC(=O)/C=C/c1c(C)[nH]c(=O)[nH]c1=O (centres undefined) as well.
197 µM (inactive)

Record: COC(=O)C12C3C4C1C1C2C3C41C(=O)NC(C)(C)CC(=O)O (centres undefined)
> 100 µM (inactive)

Thanks! And Cc1cc(Br)c(O)c(-c2cscn2)c1 ?
3.66 µM (inactive)

Please give the result for COc1cc(OC)c(OC)cc1/C=C\c1nccc2ccccc12 too.
18.7 µM (inactive)

# iterate: NC1CC(=O)c2csc(Cl)c21 (centres undefined)
2.72 µM (inactive)

Same thing, different compound: O=C(CCCN1CCC2(CC1)C(=O)NC(=O)N2c1ccccc1)c1ccc(F)cc1
> 100 µM (inactive)

Also, COc1ccc(/C=C2\CCC(C)(CN(C)C)C2=O)cc1Br (centres undefined) please.
34.8 µM (inactive)

Next entry: CC[C@H](C)C(=O)O[C@H]1CCC=C2C=C[C@H](C)[C@H](CC[C@@H]3C[C@@H](O)CC(=O)O3)[C@H]21 [MEVASTATIN]
46.6 µM (inactive)

O=S(=O)(O)CCCC1S(=O)(=O)OCCOS1(=O)=O ?
> 100 µM (inactive)

Let us now turn to Clc1ccc(C2=NOC3C4CCC(C4)C23)cc1 (centres undefined)
56 µM (inactive)

What do you get for Cc1cc2ccccc2n2c1nc1ccc(O)cc12 ?
> 10 µM (inactive)

Same question for N#CC(C#N)=C1C(=O)NC(N)=C1C#N please.
> 100 µM (inactive)

And the next one, O=C(O)c1ccccc1/C=N/N=C1NCCCCN1 ?
> 100 µM (inactive)

Param item: COC(=O)C(=O)C(CC(=O)Nc1ccc(C)cc1)C(=O)OC (centres undefined)
> 100 µM (inactive)

Then this compound: O=c1c2cccc3cccc(c4n1CCCN=4)c32
47.5 µM (inactive)
